Hey, just so you know, these numbers are from patent US4775681A.

System: Candida albicans
Assay: Antifungal susceptibility, microbroth dilution MIC
Format: cell-based
Details: 24 h, strain 1570
Where a name gives a salt, the structure may show the parent alone.
Readout label: MIC (µg/mL)

Look over these answered cases.
C[C@@H]1[C@H](O)[C@@H](C)/C=C/C=C/C=C/C=C/C=C/C=C/C=C/[C@H](O[C@@H]2O[C@H](C)[C@@H](O)[C@H](N)[C@@H]2O)C[C@@H]2O[C@](O)(C[C@@H](O)C[C@@H](O)[C@H](O)CC[C@@H](O)C[C@@H](O)CC(=O)O[C@H]1C)C[C@H](O)[C@H]2C(=O)O [AMP-B, Amphotericin-B, reference compound]: 8
CC(=O)N1CCN(c2ccc(OCC3COC(Cn4ccnc4)(c4ccc(Cl)cc4Cl)O3)cc2)CC1 (centres unmarked) [Keto, Ketoconazole, reference compound]: 0.25
CCOC(=O)c1c(Br)c(-c2ccc(F)cc2)n(CC[C@H]2C[C@H](O)CC(=O)O2)c1C(F)(F)F (relative stereo): 32

[1] CC(C)c1c(Br)c(Br)c(-c2ccc(F)cc2)n1CC[C@@H](O)C[C@@H](O)CC(=O)O (relative stereo) [Compound 1, monosodium salt]
[2] CC(C)c1c(Cl)c(Cl)c(-c2ccc(F)cc2)n1CC[C@@H](O)C[C@@H](O)CC(=O)O (relative stereo) [Compound 3, monosodium salt]
Problem: Kindly identify the item with the lower MIC figure among these two: 1 and 2 Answer format: the label of the selected item.
Solution: 1

###

Tested on: Cryptococcus neoformans
Test: Antifungal susceptibility, microbroth dilution MIC
Type: cell-based
Conditions: strain 1678, 24 hours
Where a name gives a salt, the structure may show the parent alone.
Readout label: MIC (µg/mL)

CC(C)c1c(Cl)c(Cl)c(-c2ccc(F)cc2)n1CC[C@@H](O)C[C@@H](O)CC(=O)O (relative stereo) [Compound 3, monosodium salt]: 128
C[C@@H]1[C@H](O)[C@@H](C)/C=C/C=C/C=C/C=C/C=C/C=C/C=C/[C@H](O[C@@H]2O[C@H](C)[C@@H](O)[C@H](N)[C@@H]2O)C[C@@H]2O[C@](O)(C[C@@H](O)C[C@@H](O)[C@H](O)CC[C@@H](O)C[C@@H](O)CC(=O)O[C@H]1C)C[C@H](O)[C@H]2C(=O)O [AMP-B, Amphotericin-B, reference compound]: 4

[P] CC(C)c1c(Br)c(Br)c(-c2ccc(F)cc2)n1CC[C@@H](O)C[C@@H](O)CC(=O)O (relative stereo) [Compound 1, monosodium salt]
[Q] CCOC(=O)c1c(Br)c(-c2ccc(F)cc2)n(CC[C@H]2C[C@H](O)CC(=O)O2)c1C(F)(F)F (relative stereo)
Problem: Kindly identify the item with the lower MIC figure among these two: P and Q Answer format: the label of the selected item.
Solution: Q
(Q: 64 µg/mL, P: 128 µg/mL)

###

System: Candida albicans
Assay: Antifungal susceptibility, microbroth dilution MIC
Format: cell-based
Conditions: 24 h, strain 1577
Structures can show the parent of a compound that is named as a salt.
Readout label: MIC (µg/mL)

[P] CC(=O)N1CCN(c2ccc(OCC3COC(Cn4ccnc4)(c4ccc(Cl)cc4Cl)O3)cc2)CC1 (centres unmarked) [Keto, Ketoconazole, reference compound]
[Q] CC(C)c1c(Br)c(Br)c(-c2ccc(F)cc2)n1CC[C@@H](O)C[C@@H](O)CC(=O)O (relative stereo) [Compound 1, monosodium salt]
Problem: Of P and Q , which one carries the higher reported MIC? Answer format: the label of the selected item.
Solution: Q
